# Tested on: Chenopodium album
# method.summary: Test of herbicidal activities (greenhouse pot method)
# Type: in vivo
# condition.info: single dose 300 g ai./h, treated before/after germination, 15 days later, greenhouse pot
experimental.endpoint: Herbicidal activity Chenopodium album (inhibition level)

>>> result("Cc1ccc([N+](=O)[O-])c(C[S+]([O-])c2nc3cc(-n4nc(C)n(C(F)F)c4=O)c(F)cc3s2)c1 (stereo not shown)")
"A (90 ≦ A ≦ 100%)"
>>> result("C=CCSc1nc2cc(-n3nc(C(F)(F)F)n(C(F)F)c3=O)c(F)cc2s1")
"A (90 ≦ A ≦ 100%)"
>>> result("Cc1nn(-c2cc3nc(SCc4ccccc4F)sc3cc2F)c(=O)n1C(F)F")
"C (60 ≦ C < 80%)"
>>> result("CCCCCCS(=O)(=O)c1nc2cc(-n3nc(C)n(C(F)F)c3=O)c(Cl)cc2s1")
"C (60 ≦ C < 80%)"
>>> result("Cc1nn(-c2cc3nc(S(=O)(=O)Cc4ccccc4)sc3cc2F)c(=O)n1C")
"C (60 ≦ C < 80%)"
>>> result("Cc1nn(-c2cc3nc(S(=O)(=O)Cc4cccc(Cl)c4)sc3cc2F)c(=O)n1C")
"D (50 ≦ D < 60%)"
>>> result("Cc1nn(-c2cc3nc(SCc4ccccc4)sc3cc2Cl)c(=O)n1C(F)F")
"E (E < 50%)"
>>> result("Cc1nn(-c2cc3nc(SCc4cccc(Br)c4)sc3cc2F)c(=O)n1C(F)F")
"B (80 ≦ B < 90%)"

## Task What reported Herbicidal activity Chenopodium album (inhibition level) corresponds to C=CCSc1nc2cc(-n3nc(C)n(C(F)F)c3=O)c(Cl)cc2s1 on Chenopodium album?
## Result C (60 ≦ C < 80%)

## Task What reported Herbicidal activity Chenopodium album (inhibition level) corresponds to CCOC(=O)C[S+]([O-])c1nc2cc(-n3nc(C)n(C(F)F)c3=O)c(Br)cc2s1 (stereo not shown) on Chenopodium album?
## Result E (E < 50%)

## Task What reported Herbicidal activity Chenopodium album (inhibition level) corresponds to CC[S+]([O-])c1nc2cc(-n3nc(C)n(C(F)F)c3=O)c(Cl)cc2s1 (stereo not shown) on Chenopodium album?
## Result D (50 ≦ D < 60%)

## Task What reported Herbicidal activity Chenopodium album (inhibition level) corresponds to Cc1ccc(CS(=O)(=O)c2nc3cc(-n4nc(C)n(C(F)F)c4=O)c(F)cc3s2)cc1 on Chenopodium album?
## Result C (60 ≦ C < 80%)
